Could you please report measured half-life for the items listed next?
# protocol summary: In vitro metabolic stability, liver microsome incubation (human)
# Assay type: in vitro ADME
# measurement conditions: human, liver microsomes; 1 mg/mL liver microsome protein, 37° C.; read-out: T1/2 in human liver microsome min
Numbers only; they are read as h.

Could you tell me which half-life is on file for COc1ccc(Cn2ncc3c(S(N)(=O)=O)cc(NC(=O)Cc4ccccc4Cl)cc32)cc1 [Compound 35-B] ? 4.66

Could you tell me which half-life is on file for CCn1ncc2c(S(N)(=O)=O)cc(NC(=O)Cc3ccccc3Cl)cc21 [Compound 4-B] ? 1.23

Could you tell me which half-life is on file for CC(C)CCn1cc2c(S(N)(=O)=O)cc(NC(=O)Cc3ccccc3Cl)cc2n1 [Compound 8-A] ? 0.584

Could you tell me which half-life is on file for C=CCn1ncc2c(S(N)(=O)=O)cc(NC(=O)Cc3ccccc3Cl)cc21 [Compound 14-B] ? 1.61

Could you tell me which half-life is on file for NS(=O)(=O)c1cc(NC(=O)Cc2ccccc2Cl)cc2c1cnn2CC1CCCO1 (centres unmarked) [Compound 120A] ? 0.371

====

# protocol summary: In vitro metabolic stability, liver microsome incubation (rat)
# Assay type: in vitro ADME
# measurement conditions: rat, microsomes; 1 mg/mL liver microsome protein, 37° C.; read-out: T1/2 in rat liver microsome min
endpoint name: half-life (h)
Numbers only; they are read as h.

Could you tell me which half-life is on file for NS(=O)(=O)c1cc(NC(=O)Cc2ccccc2Cl)cc2c1cnn2-c1ccc(F)cc1 ? 1.53

====

# protocol summary: In vitro metabolic stability, liver microsome incubation (human)
# Type: in vitro ADME
# measurement conditions: human, liver microsomes; 1 mg/mL liver microsome protein, 37° C.; read-out: T1/2 in human liver microsome min
Could you please report measured half-life for the items listed next?
Note: state the figure and append the unit.

Could you tell me which half-life is on file for Nc1ccc(Cn2ncc3c(S(N)(=O)=O)cc(NC(=O)Cc4ccccc4Cl)cc32)cn1 [Compound 101A] ? 1.19 h

Could you tell me which half-life is on file for COc1cccc(Cn2cc3c(S(N)(=O)=O)cc(NC(=O)Cc4ccccc4Cl)cc3n2)c1 ? 1.44 h

Could you tell me which half-life is on file for CC(C)C(C)n1cc2c(S(N)(=O)=O)cc(NC(=O)Cc3ccccc3Cl)cc2n1 (centres unmarked) ? 0.408 h

Could you tell me which half-life is on file for NS(=O)(=O)c1cc(NC(=O)Cc2ccccc2Cl)cc2nn(CC3CCCC3)cc12 ? 0.748 h

Could you tell me which half-life is on file for NS(=O)(=O)c1cc(NC(=O)Cc2ccccc2Cl)cc2nn(CC3CCOCC3)cc12 ? 1.07 h

Could you tell me which half-life is on file for NS(=O)(=O)c1cc(NC(=O)Cc2ccccc2Cl)cc2nn(Cc3ccc(F)cc3)cc12 ? 8.54 h

Could you tell me which half-life is on file for COc1cccc(Cn2ncc3c(S(N)(=O)=O)cc(NC(=O)Cc4ccccc4Cl)cc32)c1 ? 0.962 h

Could you tell me which half-life is on file for CC(C)Cn1cc2c(S(N)(=O)=O)cc(NC(=O)Cc3ccccc3Cl)cc2n1 ? 0.988 h

Could you tell me which half-life is on file for Cn1cc2c(S(N)(=O)=O)cc(NC(=O)Cc3ccccc3Cl)cc2n1 ? 106 h

Could you tell me which half-life is on file for COc1ccc(Cn2cc3c(S(N)(=O)=O)cc(NC(=O)Cc4ccccc4Cl)cc3n2)cc1 ? 6.21 h

Could you tell me which half-life is on file for NS(=O)(=O)c1cc(NC(=O)Cc2ccccc2Cl)cc2cn(CC3CC3)nc12 ? 13.1 h

Could you tell me which half-life is on file for NS(=O)(=O)c1cc(NC(=O)Cc2ccccc2Cl)cc2nn(C(F)F)cc12 ? 11.5 h

Could you tell me which half-life is on file for NS(=O)(=O)c1cc(NC(=O)Cc2ccccc2Cl)cc2nn(CC3CCCO3)cc12 (centres unmarked) ? 1.06 h

Could you tell me which half-life is on file for NS(=O)(=O)c1cc(NC(=O)Cc2ccccc2Cl)cc2nc(-c3ccccc3)[nH]c12 ? 3.79 h

Could you tell me which half-life is on file for CCCn1cc2c(S(N)(=O)=O)cc(NC(=O)Cc3ccccc3Cl)cc2n1 ? 5.96 h

Could you tell me which half-life is on file for CCC(F)(F)n1cc2c(S(N)(=O)=O)cc(NC(=O)Cc3ccccc3Cl)cc2n1 ? 25 h

Could you tell me which half-life is on file for NS(=O)(=O)c1cc(NC(=O)Cc2ccccc2Cl)cc2c1cnn2CC1CCOC1 (centres unmarked) [Compound 110A] ? 0.882 h

====

# subject of test: hP2X4 (human purinergic P2X receptor subtype 4) (Homo sapiens, UniProt Q99571)
# Sequence (Q99571 1-404 isoform Q99571-2): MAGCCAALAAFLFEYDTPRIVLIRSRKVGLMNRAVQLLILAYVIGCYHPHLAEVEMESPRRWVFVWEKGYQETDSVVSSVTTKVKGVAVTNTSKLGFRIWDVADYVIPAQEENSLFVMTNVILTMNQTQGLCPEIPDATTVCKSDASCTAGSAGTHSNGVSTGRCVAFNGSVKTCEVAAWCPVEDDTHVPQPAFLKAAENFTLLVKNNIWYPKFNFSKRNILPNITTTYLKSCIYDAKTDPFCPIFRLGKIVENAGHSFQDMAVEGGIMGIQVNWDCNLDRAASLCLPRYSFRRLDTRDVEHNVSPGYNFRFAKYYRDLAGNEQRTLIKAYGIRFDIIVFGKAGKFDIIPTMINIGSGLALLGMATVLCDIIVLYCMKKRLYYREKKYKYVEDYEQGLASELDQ
# protocol summary: FLIPR assay of intracellular calcium increase induced by activation of hP2X4 expressed in HEK293 cells (agonist BZ-ATP 2.5 μM)
# Format: cell-based
# measurement conditions: HEK293 cells stably expressing hP2X4, FLIPR, class symbols, read-out: P2X4 IC50
pIC50: −log10 of the molar value.
Could you please report measured pIC50 for the items listed next?

Could you tell me which pIC50 is on file for NS(=O)(=O)c1cc(NC(=O)Cc2ccccc2Cl)cc2c1cnn2CC1CCOC1 (stereo not shown) [Compound 110A] ? 5.30 to 6.70

Could you tell me which pIC50 is on file for NS(=O)(=O)c1cc(NC(=O)Cc2ccccc2Cl)cc2nn(CCC3CC3)cc12 ? ≥ 8.00

Could you tell me which pIC50 is on file for NS(=O)(=O)c1cc(NC(=O)Cc2ccccc2Cl)cc2nn(C(F)(F)C3CC3)cc12 ? 7.30 to 8.00

Could you tell me which pIC50 is on file for NS(=O)(=O)c1cc(NC(=O)Cc2ccccc2Cl)cc2nn(C(F)C3CC3)cc12 (stereo not shown) ? 7.30 to 8.00

Could you tell me which pIC50 is on file for COCCn1ncc2c(S(N)(=O)=O)cc(NC(=O)Cc3ccccc3Cl)cc21 [Compound 25A] ? 7.30 to 8.00

Could you tell me which pIC50 is on file for NS(=O)(=O)c1cc(NC(=O)Cc2ccccc2Cl)cc2c1cnn2CC1CCCO1 (stereo not shown) [Compound 120A] ? 6.70 to 7.30

Could you tell me which pIC50 is on file for NS(=O)(=O)c1cc(NC(=O)Cc2ccccc2Cl)cc2c1cnn2CC1CC1 ? 7.30 to 8.00

Could you tell me which pIC50 is on file for NS(=O)(=O)c1cc(NC(=O)Cc2ccccc2Cl)cc2nn(C(=O)C3CC3)cc12 ? ≥ 8.00

Could you tell me which pIC50 is on file for COc1cnccc1Cn1cc2c(S(N)(=O)=O)cc(NC(=O)Cc3ccccc3Cl)cc2n1 ? 7.30 to 8.00

Could you tell me which pIC50 is on file for NS(=O)(=O)c1cc(NC(=O)Cc2ccccc2Cl)cc2c1ncn2-c1ccc(Cl)cc1 ? 7.30 to 8.00

Could you tell me which pIC50 is on file for NS(=O)(=O)c1cc(NC(=O)Cc2ccccc2Cl)cc2nn(CC3CCCC3)cc12 ? ≥ 8.00

Could you tell me which pIC50 is on file for COCCOc1cccc(CC(=O)Nc2cc(S(N)(=O)=O)c3cn(C(F)F)nc3c2)c1 ? 5.30 to 6.70

Could you tell me which pIC50 is on file for CC(C)n1ncc2c(S(N)(=O)=O)cc(NC(=O)Cc3ccccc3Cl)cc21 ? 7.30 to 8.00

Could you tell me which pIC50 is on file for C=CC(F)(F)n1cc2c(S(N)(=O)=O)cc(NC(=O)Cc3ccccc3Cl)cc2n1 ? 7.30 to 8.00

Could you tell me which pIC50 is on file for CCC(F)(F)n1cc2c(S(N)(=O)=O)cc(NC(=O)Cc3ccccc3Cl)cc2n1 ? 7.30 to 8.00

Could you tell me which pIC50 is on file for COc1ccc(Cn2ncc3c(S(N)(=O)=O)cc(NC(=O)Cc4ccccc4Cl)cc32)cc1 ? 7.30 to 8.00
